B1: BTBD1 (parent)
chain: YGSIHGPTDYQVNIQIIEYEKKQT

Variants of: B1
EXPERIMENT SUMMARY: protein stability index of a GFP-peptide fusion (GPS, HEK-293T) (PSI 1-6); higher = more stable;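 also: lentivirally expressed fusions sorted by FACS into six bins by GFP to DsRed ratio, PSI derived from sequencing read proportions per bin multiplied by bin number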
PARTICULARS: c terminus: a fixed tail appended
PARAMETER MEASURED: protein stability index

- INPUT SEQUENCE: "YGSIHGPTDYQVNIQKIEYEKKQT [I16K]"
  REPORTED: 3.97
- INPUT SEQUENCE: "YGSIHGPTDYQVNIHIIEYEKKQT [Q15H]"
  REPORTED: 2.11
- INPUT SEQUENCE: "YGSIHGPTDYQVLIQIIEYEKKQT [N13L]"
  REPORTED: 2.22
- INPUT SEQUENCE: "YGSIQGPTDYQVNIQIIEYEKKQT [H5Q]"
  REPORTED: 2.78
- INPUT SEQUENCE: "YGSIHGPTDYQVNIQIREYEKKQT [I17R]"
  REPORTED: 2.87
- INPUT SEQUENCE: "YGSIHGPTDYQVNIQIIEYSKKQT [E20S]"
  REPORTED: 2
- INPUT SEQUENCE: "YGSIHGPTDYYVNIQIIEYEKKQT [Q11Y]"
  REPORTED: 2.24
- INPUT SEQUENCE: "YGSIHGPTDYWVNIQIIEYEKKQT [Q11W]"
  REPORTED: 2.67
- INPUT SEQUENCE: "YGSIHGPTDYQQNIQIIEYEKKQT [V12Q]"
  REPORTED: 4.19
- INPUT SEQUENCE: "YGSIHGPTDYQVNIQIIEYECKQT [K21C]"
  REPORTED: 1.96
- INPUT SEQUENCE: "YGSIHGPTDYQVNIQIWEYEKKQT [I17W]"
  REPORTED: 2.71
- INPUT SEQUENCE: "PGSIHGPTDYQVNIQIIEYEKKQT [Y1P]"
  REPORTED: 3.67
- INPUT SEQUENCE: "YGSIHGPTIYQVNIQIIEYEKKQT [D9I]"
  REPORTED: 4.42
- INPUT SEQUENCE: "YGSIHGPTDYQVNIQFIEYEKKQT [I16F]"
  REPORTED: 2.51
- INPUT SEQUENCE: "YGSIHGPTDYQVNIQIIEYEKKQD [T24D]"
  REPORTED: 3.18
- INPUT SEQUENCE: "YGSIHGFTDYQVNIQIIEYEKKQT [P7F]"
  REPORTED: 2.47
- INPUT SEQUENCE: "YGSIHGPTDYQVNIQIIEYEKHQT [K22H]"
  REPORTED: 2.03
- INPUT SEQUENCE: "YGSIHGPTDYQVNIQIIRYEKKQT [E18R]"
  REPORTED: 1.85
- INPUT SEQUENCE: "YGSIHGPTDYQVNIQIIESEKKQT [Y19S]"
  REPORTED: 3.56
- INPUT SEQUENCE: "YGSNHGPTDYQVNIQIIEYEKKQT [I4N]"
  REPORTED: 2.93
- INPUT SEQUENCE: "YGSIHGPTDYQRNIQIIEYEKKQT [V12R]"
  REPORTED: 3.66
- INPUT SEQUENCE: "YGSIHGPTDYQVNIQIKEYEKKQT [I17K]"
  REPORTED: 3.53
- INPUT SEQUENCE: "YGSIHHPTDYQVNIQIIEYEKKQT [G6H]"
  REPORTED: 3
- INPUT SEQUENCE: "YGSIHGPTDYQVPIQIIEYEKKQT [N13P]"
  REPORTED: 3.23
- INPUT SEQUENCE: "YGSIHGPTDYQVNIQIAEYEKKQT [I17A]"
  REPORTED: 3.32
- INPUT SEQUENCE: "YGSIHGPTDYQVNIQIIEYHKKQT [E20H]"
  REPORTED: 2.54
- INPUT SEQUENCE: "YGSIHGPLDYQVNIQIIEYEKKQT [T8L]"
  REPORTED: 1.91
- INPUT SEQUENCE: "YGSIHGPTDEQVNIQIIEYEKKQT [Y10E]"
  REPORTED: 4.55
- INPUT SEQUENCE: "YGSIHGPTDYQVCIQIIEYEKKQT [N13C]"
  REPORTED: 1.7
- INPUT SEQUENCE: "YYSIHGPTDYQVNIQIIEYEKKQT [G2Y]"
  REPORTED: 2.03
- INPUT SEQUENCE: "YGSIHGPTDCQVNIQIIEYEKKQT [Y10C]"
  REPORTED: 2.96
- INPUT SEQUENCE: "YGSIHGPTDYQVNVQIIEYEKKQT [I14V]"
  REPORTED: 3.16
- INPUT SEQUENCE: "YGSIHGPTDYQVNIDIIEYEKKQT [Q15D]"
  REPORTED: 3.06
- INPUT SEQUENCE: "YGSIHGPTDYQVNIQIIEYEIKQT [K21I]"
  REPORTED: 2.42
- INPUT SEQUENCE: "YGSIHGPADYQVNIQIIEYEKKQT [T8A]"
  REPORTED: 2.71
- INPUT SEQUENCE: "YGSIHGPTDYQVNITIIEYEKKQT [Q15T]"
  REPORTED: 1.81
- INPUT SEQUENCE: "YGSIHAPTDYQVNIQIIEYEKKQT [G6A]"
  REPORTED: 2.96
- INPUT SEQUENCE: "YGSIHGPTDYQVNIQIIEHEKKQT [Y19H]"
  REPORTED: 3.23
- INPUT SEQUENCE: "YGSIHYPTDYQVNIQIIEYEKKQT [G6Y]"
  REPORTED: 2.44
- INPUT SEQUENCE: "YGSIHGPTDYQVNIQIIEYEKKHT [Q23H]"
  REPORTED: 2.31
- INPUT SEQUENCE: "LGSIHGPTDYQVNIQIIEYEKKQT [Y1L]"
  REPORTED: 2.94
- INPUT SEQUENCE: "YGSIHGKTDYQVNIQIIEYEKKQT [P7K]"
  REPORTED: 2.49
- INPUT SEQUENCE: "YGSIHGPTDYQVNIQIIEYEKDQT [K22D]"
  REPORTED: 2.77
- INPUT SEQUENCE: "YGSIHGPTDYQVNIQIIEYEKKPT [Q23P]"
  REPORTED: 2.28
- INPUT SEQUENCE: "YGSIHGPTDYQVNKQIIEYEKKQT [I14K]"
  REPORTED: 3.75
- INPUT SEQUENCE: "YGSIHGPTDYQVNQQIIEYEKKQT [I14Q]"
  REPORTED: 3.74
